Exercise: for every item that follows, state its recorded remaining activity at 25 µM.
biological target: PYL9 (Arabidopsis thaliana, UniProt Q84MC7); construct: 6X-His; made in house; host or cells: E. coli BL21[DE3]pLysS; test: receptor-mediated PP2C (HAB1) inhibition in vitro assay; format: biochemical; conditions: compound at 25 μM; control without agonist = 100%
Sequence (Q84MC7 whole entry): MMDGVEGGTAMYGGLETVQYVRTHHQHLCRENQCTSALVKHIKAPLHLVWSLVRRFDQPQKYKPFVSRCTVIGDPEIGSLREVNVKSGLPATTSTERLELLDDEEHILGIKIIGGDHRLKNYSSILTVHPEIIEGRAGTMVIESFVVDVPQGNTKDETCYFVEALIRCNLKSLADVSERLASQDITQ
Sequence (Q9CAJ0 23-511 partner): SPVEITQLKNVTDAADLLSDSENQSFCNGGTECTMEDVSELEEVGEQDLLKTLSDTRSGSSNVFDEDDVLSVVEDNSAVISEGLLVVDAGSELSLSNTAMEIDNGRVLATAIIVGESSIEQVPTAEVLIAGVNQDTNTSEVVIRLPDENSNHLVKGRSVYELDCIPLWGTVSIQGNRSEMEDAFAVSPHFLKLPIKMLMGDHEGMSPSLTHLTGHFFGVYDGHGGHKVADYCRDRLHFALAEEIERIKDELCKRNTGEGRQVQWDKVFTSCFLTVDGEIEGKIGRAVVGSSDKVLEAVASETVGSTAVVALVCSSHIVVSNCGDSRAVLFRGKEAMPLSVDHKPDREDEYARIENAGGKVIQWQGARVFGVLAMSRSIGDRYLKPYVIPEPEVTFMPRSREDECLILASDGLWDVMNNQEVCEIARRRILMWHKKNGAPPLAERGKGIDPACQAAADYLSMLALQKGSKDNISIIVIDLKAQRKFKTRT
Give bare numbers, in %.

Problem: Query (molecule): `Cc1cccc(C2(C(=O)NS(=O)(=O)Cc3ccc(C#N)cc3)CCCC2)c1` ; field requested: remaining activity at 25 µM
Solution: 46

Problem: Could you share which remaining activity at 25 µM value was measured for `CC(C)(C(=O)NS(=O)(=O)Cc1ccc(C#N)cc1)c1ccc(Cl)c(Cl)c1` ?
Solution: 38

Problem: Entry under review: `N#Cc1ccc(CS(=O)(=O)NC(=O)C2(c3ccc(Br)cc3)CC2)cc1` . Reported remaining activity at 25 µM?
Solution: 69

Problem: Look up remaining activity at 25 µM for this molecule: `N#Cc1ccc(CS(=O)(=O)NC(=O)C2(c3ccc(F)cc3)CCCCC2)cc1`
Solution: 8

Problem: Give the measured remaining activity at 25 µM of `N#Cc1ccc(CS(=O)(=O)NC(=O)C2(c3ccc(F)cc3)CCCC2)cc1` .
Solution: 10

Dear colleague, could you send me remaining activity at 25 µM for each of the items below? Thanks.
1. O=C(NS(=O)(=O)Cc1cccc2cccnc12)C1(c2ccccc2)CC1
2. CC(C)(C(=O)NS(=O)(=O)Cc1ccc(C#N)cc1)c1ccc(F)cc1
3. N#Cc1ccc(CS(=O)(=O)NC(=O)C2(c3ccc(F)cc3)CC2)cc1

Solution:
1: 100; 2: 17; 3: 49

Problem: Query (molecule): `N#Cc1ccc(CS(=O)(=O)NC(=O)C2(c3cccc(F)c3)CCCC2)cc1` ; field requested: remaining activity at 25 µM
Solution: 18

* * *

molecular target: PYL8 (Arabidopsis thaliana, UniProt Q9FGM1); construct: 6X-His; made in house; host or cells: E. coli BL21[DE3]pLysS; experiment: receptor-mediated PP2C (HAB1) inhibition in vitro assay; format: biochemical; conditions: compound at 25 μM; control without agonist = 100%
Sequence (Q9FGM1 whole entry, one chain of several): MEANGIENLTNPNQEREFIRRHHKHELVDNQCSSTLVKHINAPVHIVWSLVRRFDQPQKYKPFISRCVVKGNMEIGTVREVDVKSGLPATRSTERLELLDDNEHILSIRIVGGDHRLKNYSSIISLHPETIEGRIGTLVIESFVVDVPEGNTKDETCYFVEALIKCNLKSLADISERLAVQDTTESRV
measured_metric: remaining activity at 25 µM
Please append the unit to your numeric answer.

Look over these answered cases.
Problem: Recorded remaining activity at 25 µM for `Cc1cccc(C2(C(=O)NS(=O)(=O)Cc3ccc(C#N)cc3)CCCC2)c1` , please?
Solution: 41%

Problem: Data request, read-out remaining activity at 25 µM, for `COc1ccccc1C1(C(=O)NS(=O)(=O)Cc2ccc(C#N)cc2)CCC1`
Solution: 65%

Problem: Looking for the measured remaining activity at 25 µM of `CC(C)(C(=O)NS(=O)(=O)Cc1ccc([N+](=O)[O-])cc1)c1ccccc1` , can you help?
Solution: 35%

Problem: Param item = `N#Cc1ccc(CS(=O)(=O)NC(=O)C2(c3cccc(F)c3)CC2)cc1` ; retrieve measured remaining activity at 25 µM.
Solution: 73%

Problem: Please give the measured remaining activity at 25 µM for this molecule: `CC(C)(C(=O)NS(=O)(=O)Cc1ccc(C#N)cc1)c1cccc(C#N)c1`
Solution: 52%

State recorded remaining activity at 25 µM for all listed molecules.
1. N#Cc1ccc(CS(=O)(=O)NC(=O)C2(c3cccc(C#N)c3)CC2)cc1
2. CCC(CC)(C(=O)NS(=O)(=O)Cc1ccc([N+](=O)[O-])cc1)c1ccccc1
3. CC(C)(C(=O)NS(=O)(=O)Cc1ccc(C#N)cc1)c1ccc(F)cc1
4. CC(C)(C(=O)NS(=O)(=O)Cc1ccc(C#N)cc1)c1ccc(Cl)c(Cl)c1
5. CC1(C(=O)NS(=O)(=O)Cc2ccc(C#N)cc2)CCCc2ccccc21 (stereo not drawn)

Solution:
["36%", "36%", "32%", "54%", "75%"]

// for each molecule in input: emit remaining activity at 25 µM
1. N#Cc1ccc(CS(=O)(=O)NC(=O)C2(c3ccc(F)cc3)CCCC2)cc1
2. N#Cc1ccc(CS(=O)(=O)NC(=O)C2(c3ccc(F)cc3)CC2)cc1

Solution:
1: 21%; 2: 62%

Values were extracted from patent US10757937B2.
